# System: Monocyte
# experimental details: Inhibition of procoagulant activity in monocyte from human blood assessed as counteraction of endotoxin-induced tissue factor expression after 18 hrs
# Type: functional, cell-based
quantity name: IC50 (nM)

[[record]]
molecule = "O=c1cc(-c2ccc(Oc3c(O)cc4oc(-c5ccc(O)cc5)cc(=O)c4c3O)cc2)oc2cc(O)cc(O)c12 [HINOKIFLAVONE]"
numeric_result = 18


The measured values listed here are drawn from ChEMBL document CHEMBL1158193.
